Data origin: patent US11370785B2

- measured target: human FXR (Homo sapiens, UniProt Q96RI1)
- Construct: expressed in transfected cells; host or cells: HEK293 cells stably carrying a 5xGal4-response-element firefly luciferase reporter, transiently transfected with the pcDNA3.1-Gal4-FXR plasmid
- Sequence (Q96RI1 262-486 limits assumed): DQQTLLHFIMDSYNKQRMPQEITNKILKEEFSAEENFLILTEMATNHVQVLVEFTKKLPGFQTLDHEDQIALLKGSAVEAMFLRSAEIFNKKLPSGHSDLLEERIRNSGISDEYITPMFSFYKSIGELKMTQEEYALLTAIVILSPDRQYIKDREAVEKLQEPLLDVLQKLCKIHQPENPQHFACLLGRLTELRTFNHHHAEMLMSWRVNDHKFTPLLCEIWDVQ
- experiment notes: transient human FXR/Gal4-luciferase reporter assay
- Format: cell-based
- details: Gal4-hFXR reporter in HEK293 cells; relative to 8 μM GW-4064; read-out: FXR EC50
pEC50: −log10 of the molar value.
reported endpoint: pEC50

Some solved cases for reference:
1. O=C(O)c1cc(C(F)(F)F)c2cc(N3CCC4(CC3)CC(=Cc3c(-c5c(Cl)cccc5Cl)noc3C(F)(F)F)C4)ccc2n1 [Example 136]: 7.57
2. CCN(C)C(=O)c1cc(OC2CCC2)c2cc(N3CCC4(CC3)CC(Cc3c(-c5ccccc5C(F)(F)F)noc3C3CC3)C4)ccc2n1 [Example 184]: 7.43
3. O=C(O)c1nc(C(F)(F)F)n2cc(N3CCC4(CC3)CC(=Cc3c(-c5ccccc5C(F)(F)F)noc3C3CC3)C4)ccc12 [Example 33]: 8.22

[A] O=C(O)c1cc(CO)c2cc(N3CCC4(CC3)CC(Cc3c(-c5ccccc5C(F)(F)F)noc3C3CC3)C4)ccc2n1 [Example 154]
[B] O=C(O)c1cn(C(F)F)c2cc(N3CCC4(CC3)CC(=Cc3c(-c5c(Cl)cncc5Cl)noc3C3CC3)C4)ccc12 [Example 77]
[C] O=C(c1cc(OC2CCC2)c2cc(N3CCC4(CC3)CC(Cc3c(-c5ccccc5C(F)(F)F)noc3C3CC3)C4)ccc2n1)N1CC(F)(F)C1 [Example 186]
[D] COc1cc(C(=O)O)nc2ccc(N3CCC4(CC3)CC(=Cc3c(-c5ccccc5OC(F)(F)F)noc3C3CC3)C4)cc12 [Example 70]
Q: Ascending sort, pEC50. Returns: the labels arranged in the requested order.
Result: C, A, D, B
(C: 5.71, A: 6.49, D: 7.19, B: 7.40)

[P] Cn1cc(C(=O)O)c2ccc(N3CCC4(CC3)CC(Cc3c(-c5ccccc5C(F)(F)F)noc3C3CC3)C4)cc21 [Example 38]
[Q] CC(C)(C)OC(=O)N1c2ccc(N3CCC4(CC3)CC(=Cc3c(-c5ccccc5OC(F)(F)F)noc3C3CC3)C4)cc2CCC1C(=O)O (centres unmarked) [Example 111]
Q: For the two items P and Q , which reports the higher pEC50 value? Please indicate the selected item by its label.
Result: P
(P: 7.55, Q: 6.32)

[A] O=C(O)c1cc(OCC2CC2)c2cc(N3CCC4(CC3)CC(=Cc3c(-c5ccccc5OC(F)(F)F)noc3C3CC3)C4)ccc2n1 [Example 87]
[B] COCCOc1cc(C(=O)O)nc2ccc(N3CCC4(CC3)CC(Cc3c(-c5ccccc5C(F)(F)F)noc3C3CC3)C4)cc12 [Example 97]
Q: Return label of the item with the larger pEC50. Candidates: A , B . The response must carry the label of the picked entry.
Result: A
